Biological target: MERTK (human) (UniProt Q12866)
Sequence (Q12866 whole entry, looked up): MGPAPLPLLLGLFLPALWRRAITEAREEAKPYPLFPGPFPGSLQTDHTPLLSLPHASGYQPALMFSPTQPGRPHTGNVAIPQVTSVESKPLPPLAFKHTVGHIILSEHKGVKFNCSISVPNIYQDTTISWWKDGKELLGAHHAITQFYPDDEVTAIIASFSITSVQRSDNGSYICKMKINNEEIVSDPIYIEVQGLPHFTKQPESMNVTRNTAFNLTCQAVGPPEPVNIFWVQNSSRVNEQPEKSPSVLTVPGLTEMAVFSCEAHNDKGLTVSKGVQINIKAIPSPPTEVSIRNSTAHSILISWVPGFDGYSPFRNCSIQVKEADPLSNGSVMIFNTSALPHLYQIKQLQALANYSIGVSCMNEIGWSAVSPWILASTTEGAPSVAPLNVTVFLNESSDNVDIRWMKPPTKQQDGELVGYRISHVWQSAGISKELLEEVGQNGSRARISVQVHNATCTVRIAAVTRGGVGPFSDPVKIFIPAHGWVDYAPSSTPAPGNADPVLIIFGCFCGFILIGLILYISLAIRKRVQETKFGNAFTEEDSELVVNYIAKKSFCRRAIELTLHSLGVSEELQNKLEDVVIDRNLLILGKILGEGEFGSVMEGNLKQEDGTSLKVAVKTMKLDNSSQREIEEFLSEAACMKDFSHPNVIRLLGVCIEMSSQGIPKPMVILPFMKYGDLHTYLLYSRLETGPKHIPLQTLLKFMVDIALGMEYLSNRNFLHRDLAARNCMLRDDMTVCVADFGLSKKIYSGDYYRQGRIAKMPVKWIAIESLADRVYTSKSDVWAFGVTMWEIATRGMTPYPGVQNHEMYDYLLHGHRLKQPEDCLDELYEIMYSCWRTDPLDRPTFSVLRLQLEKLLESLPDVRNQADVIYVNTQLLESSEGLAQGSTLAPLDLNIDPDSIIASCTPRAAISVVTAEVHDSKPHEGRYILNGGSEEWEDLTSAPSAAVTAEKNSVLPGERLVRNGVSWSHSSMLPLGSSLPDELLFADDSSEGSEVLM
Assay: KINOMEscan competition binding
Conditions: compound 10.0 µM
Can you tell me kinase still bound, per cent of control for the items I'm about to list?
Answer in %, number only, no unit symbol.

Task: // lookup kinase still bound, per cent of control for `N#Cc1cc(-c2ccnc(Nc3ccc(-n4cnc(-c5cccnc5)n4)cc3)n2)cc(N2CCOCC2)c1`
Result: 57

Task: // lookup kinase still bound, per cent of control for `CCN1CCN(Cc2ccc(NC(=O)c3ccc(C)c(/C=C/c4cnc5[nH]ccc5c4OC)c3)cc2C(F)(F)F)CC1`
Result: 9.2

Task: // lookup kinase still bound, per cent of control for `CCOc1cc(N2CCC(O)CC2)ccc1Nc1ncc2c(n1)N(C)c1ccccc1C(=O)N2C`
Result: 100

Task: // lookup kinase still bound, per cent of control for `N#C/C(=C1/Nc2ccccc2S1)c1ccnc(NCCc2cccnc2)n1`
Result: 100
